Subject Of Test: sGC (Rattus norvegicus)
Construct: expressed in transfected cells; host or cells: CHO reporter cell line
Sequence (P20595 1-619): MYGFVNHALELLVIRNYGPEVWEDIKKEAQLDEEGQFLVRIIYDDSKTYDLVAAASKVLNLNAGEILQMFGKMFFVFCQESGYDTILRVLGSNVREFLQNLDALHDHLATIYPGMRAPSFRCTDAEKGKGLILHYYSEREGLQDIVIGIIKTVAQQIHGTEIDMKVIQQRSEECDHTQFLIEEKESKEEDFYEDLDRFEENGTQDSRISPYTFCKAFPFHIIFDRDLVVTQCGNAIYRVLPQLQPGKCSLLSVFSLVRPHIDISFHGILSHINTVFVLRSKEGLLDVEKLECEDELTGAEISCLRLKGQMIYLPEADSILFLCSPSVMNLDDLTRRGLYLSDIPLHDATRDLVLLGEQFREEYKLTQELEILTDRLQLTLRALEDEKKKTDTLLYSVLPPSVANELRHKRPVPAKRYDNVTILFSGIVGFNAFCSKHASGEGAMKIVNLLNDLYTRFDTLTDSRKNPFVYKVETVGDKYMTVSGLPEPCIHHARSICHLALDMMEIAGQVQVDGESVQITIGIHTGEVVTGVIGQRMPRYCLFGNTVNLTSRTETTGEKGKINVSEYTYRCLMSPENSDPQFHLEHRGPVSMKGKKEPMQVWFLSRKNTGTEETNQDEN
Sequence (P19686 1-690 partner): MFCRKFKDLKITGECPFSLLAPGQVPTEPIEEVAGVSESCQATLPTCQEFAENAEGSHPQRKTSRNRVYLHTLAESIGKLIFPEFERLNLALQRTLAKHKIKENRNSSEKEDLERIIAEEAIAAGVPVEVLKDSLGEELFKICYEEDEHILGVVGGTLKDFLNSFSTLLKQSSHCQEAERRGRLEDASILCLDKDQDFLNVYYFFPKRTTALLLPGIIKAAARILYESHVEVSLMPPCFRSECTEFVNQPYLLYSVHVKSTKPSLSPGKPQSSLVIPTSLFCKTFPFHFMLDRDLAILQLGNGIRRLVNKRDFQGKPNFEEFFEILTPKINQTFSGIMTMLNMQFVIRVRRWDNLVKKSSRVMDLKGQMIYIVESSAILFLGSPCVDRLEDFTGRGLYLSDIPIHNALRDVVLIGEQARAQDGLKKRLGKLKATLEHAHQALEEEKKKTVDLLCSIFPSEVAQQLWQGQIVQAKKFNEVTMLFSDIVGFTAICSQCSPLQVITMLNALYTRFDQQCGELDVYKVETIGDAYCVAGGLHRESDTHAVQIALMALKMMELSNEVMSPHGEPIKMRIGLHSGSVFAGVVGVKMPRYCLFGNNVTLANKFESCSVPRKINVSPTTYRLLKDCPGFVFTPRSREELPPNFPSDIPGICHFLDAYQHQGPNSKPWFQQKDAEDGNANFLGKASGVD
Assay Notes: sGC-activating activity in the CHO reporter cell in vitro
Format: cell-based
Procedure: The cellular action of the compounds according to the invention is determined at a recombinant guanylate cyclase reporter cell line, as described in F. Wunder et al., Anal. Biochem. 339, 104-112 (2005).
Result Type: MEC (minimum effective concentration), sGC-activating activity in the CHO reporter cell (nM)

* CCC(C)C(C(=O)NCCCCC1(C(=O)O)CC1)c1ccc(CN2N=C(c3ccccc3)OCC2=O)cc1 (single isomer, unassigned; (+)) | 6.5
* CC(C(C(=O)NCCCCC1(C(=O)O)CC1)c1ccc(CN2N=C(c3ccccc3)OCC2=O)cc1)C(F)(F)F (stereo not drawn) | 1
* O=C(O)CC1(CCCNC(=O)C(c2ccc(CN3N=C(c4ccccc4)OCC3=O)cc2)C2CCCC2)CC1 (stereo not drawn) | 30
* O=C(NCCCCC1(C(=O)O)CC1)C(c1ccc(CN2N=C(c3ccccc3)OCC2=O)cc1)C1CCCC1 (single isomer, unassigned; (+)) | 10
* CC(CCCCNC(=O)C(c1ccc(CN2N=C(c3ccccc3)OCC2=O)cc1)C1CCCC1)C(=O)O (single isomer, unassigned; (+)) [Example 11] | 100
* O=C(O)CCCCCNC(=O)C(c1ccc(CN2N=C(c3ccccc3)OCC2=O)cc1)C1CCCC1 (stereo not drawn) | 100
